molecular target: human B1R receptor (Homo sapiens, UniProt P46663); construct: host or cells: CHO K1 cells (Chinese hamster ovary), stably transfected; assay: Functional study on the bradykinin receptor 1 (B1R), FLIPR Ca2+ assay, hB1R cells; assay type: cell-based; details: test substance 10 μM; hB1R CHO K1 cells; agonist Lys-Des-Arg9-bradykinin 0.5 nM; % inhibition compared with the maximum achievable inhibition
Sequence (P46663 whole entry): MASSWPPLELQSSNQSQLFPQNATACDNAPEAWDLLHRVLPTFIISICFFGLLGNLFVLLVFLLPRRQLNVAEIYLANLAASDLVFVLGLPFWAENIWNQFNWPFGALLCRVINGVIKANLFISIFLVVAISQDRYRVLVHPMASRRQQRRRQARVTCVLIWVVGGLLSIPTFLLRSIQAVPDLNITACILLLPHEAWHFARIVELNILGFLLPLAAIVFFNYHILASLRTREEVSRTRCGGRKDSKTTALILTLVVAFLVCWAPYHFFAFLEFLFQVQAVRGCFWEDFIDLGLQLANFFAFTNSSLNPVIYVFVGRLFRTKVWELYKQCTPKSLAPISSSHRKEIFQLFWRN
reportedEndpoint: B1R Antagonism, human [10 μM] % Inhibition (%)
Give your result in % as a bare value.

Data request: Consider the compound shown here: O=C(COCC1CCCCN1S(=O)(=O)c1c(Cl)cc(Cl)cc1Cl)N1CCC(c2cccnc2)C1 (centres unmarked) [Example 389] What is its recorded B1R Antagonism, human [10 μM] % Inhibition?
Data returned: 100.51

Data request: Could you do the same for O=C(COCC1Cc2ccccc2CN1S(=O)(=O)c1ccc(Cl)cc1Cl)N1CCC(N2CCCC2)CC1 (centres unmarked) [Example 17] , please?
Data returned: 95.53

Data request: What do we get for CN(C)c1ccc(C2CCCCCN2C(=O)COCC2CCCCN2S(=O)(=O)c2cccc3ccccc23)cc1 (centres unmarked) [Example 63] ?
Data returned: 58.57

Data request: Repeat with COc1cc(C)c(S(=O)(=O)N2CCCCC2COCC(=O)N2CCOC(c3cccnc3)C2)c(C)c1 (centres unmarked) [Example 207]
Data returned: 101.93

Data request: How about this compound: O=C(COCC1CCCCN1S(=O)(=O)c1cccc2ccccc12)NCC1CCCN(Cc2ccccc2)C1 (centres unmarked) [Example 34]
Data returned: 79.9

Data request: Check COc1cc(C)c(S(=O)(=O)N2CCCC2COCC(=O)NCc2ccc(N3CCN(C)CC3)cc2)c(C)c1 (centres unmarked) [Example 302] too.
Data returned: 100.69

Data request: Follow-up entry: COc1ccc(S(=O)(=O)N2Cc3ccccc3CC2COCC(=O)N2CCC(CCN3CCCCC3)CC2)cc1 (centres unmarked) [Example 69]
Data returned: 53.64

Data request: Ok, now CN(C)C1CCN(C(=O)COCCC2CCCCN2S(=O)(=O)c2cccc3ccccc23)C1 (centres unmarked) [Example 66]
Data returned: 55.38
